Values compiled from ChEMBL document CHEMBL5316282.

biological target: Transcriptional enhancer factor TEF-3 (Homo sapiens); assay: Inhibition of TEAD4 (unknown origin) transfected in human HEK293 cells co-transfected with renilla plasmid assessed as maximum inhibition of transcriptional activity at 0.01 to 100 uM incubated for 24 hrs by dual Glo-luciferase reporter assay relative to control; assay type: cell-based; conditions: dose 0.01-100 µM
Sequence (Q15561 whole entry): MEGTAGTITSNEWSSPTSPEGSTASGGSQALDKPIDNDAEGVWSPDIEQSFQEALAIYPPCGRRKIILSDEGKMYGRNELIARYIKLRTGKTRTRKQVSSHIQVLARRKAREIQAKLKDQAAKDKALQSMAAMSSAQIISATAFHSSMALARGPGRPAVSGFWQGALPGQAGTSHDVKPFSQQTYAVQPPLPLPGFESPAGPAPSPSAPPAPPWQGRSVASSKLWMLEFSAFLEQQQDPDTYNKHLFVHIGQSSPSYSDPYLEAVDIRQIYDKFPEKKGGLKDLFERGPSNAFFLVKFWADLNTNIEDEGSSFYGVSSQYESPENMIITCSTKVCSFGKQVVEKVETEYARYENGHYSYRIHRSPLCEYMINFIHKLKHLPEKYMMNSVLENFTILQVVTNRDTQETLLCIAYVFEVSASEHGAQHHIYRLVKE
measured_metric: Imax (%)

P = N#CN1CC2CCCC(Nc3cccc(C(F)(F)F)c3)C2C1 (centres undefined)
Q = N#CN1Cc2cccc(Nc3cccc(C(F)(F)F)c3)c2C1
Req: So which one has the bigger Imax here, P or Q ? Use the label to indicate which entry you chose.
Resp: P
(P: 87.3%, Q: 46.6%)
